Where do the numbers come from? From paper PMC5763555.

# STUDY TARGET: POS-1(ZFmut) TZF domain (Caenorhabditis elegans, UniProt G5EF15 80-180, F121N;F164N)
# Sequence (G5EF15 80-180 F121N/F164N): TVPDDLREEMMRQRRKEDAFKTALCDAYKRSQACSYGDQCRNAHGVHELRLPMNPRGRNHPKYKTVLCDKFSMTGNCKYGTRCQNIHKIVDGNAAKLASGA
# METHOD: EMSA
METRIC: Kd

-- ask Query: Kd; subject: UUUUUCUUAUUCUAGACUAAUAUUGUAAGCU (ssRNA) [SCR+ (glp-1 3'UTR fragment)]
-- reply > 300 nM
